Test system: HDQ-P1
Assay: normalised viability (% of control), CellTiter-Blue; higher = more viable cells (100 = DMSO, 0 = benzethonium chloride kill control)
Conditions: incubation time: 72 h

# molecule, normalised viability / %
records = [
    ("COc1cccc2c1C(=O)c1c(O)c3c(c(O)c1C2=O)C[C@@](O)(C(=O)CO)C[C@@H]3O[C@H]1C[C@H](N)[C@H](O)[C@H](C)O1 [Doxorubicin] (0.1 nM)", 98.5),
    ("CO[C@H]1C[C@@H]2CC[C@@H](C)[C@@](O)(O2)C(=O)C(=O)N2CCCC[C@H]2C(=O)O[C@H]([C@H](C)C[C@@H]2CC[C@@H](OC(=O)C(C)(CO)CO)[C@H](OC)C2)CC(=O)[C@H](C)/C=C(\\C)[C@@H](O)[C@@H](OC)C(=O)[C@H](C)C[C@H](C)/C=C/C=C/C=C/1C [Temsirolimus] (0.1 nM)", 105),
    ("C=CC[C@@H]1/C=C(\\C)C[C@H](C)C[C@H](OC)[C@H]2O[C@@](O)(C(=O)C(=O)N3CCCC[C@H]3C(=O)O[C@H](/C(C)=C/[C@@H]3CC[C@@H](O)[C@H](OC)C3)[C@H](C)[C@@H](O)CC1=O)[C@H](C)C[C@@H]2OC [Tacrolimus] (1 nM)", 114),
    ("N#CC[C@H](C1CCCC1)n1cc(-c2ncnc3[nH]ccc23)cn1 [Ruxolitinib] (1 nM)", 85.7),
]

###

Item-by-item account of normalised response
Test system: CAL-85-1
Experiment: normalised response (% of control), CellTox Green; higher = less cell death (100 = DMSO, 0 = benzethonium chloride kill control)
Settings: incubation time: 72 h
observed property: normalised response (%)

# molecule, observed property, measurement
records = [
    ("Cc1c2oc3c(C)ccc(C(=O)N[C@@H]4C(=O)N[C@H](C(C)C)C(=O)N5CCC[C@H]5C(=O)N(C)CC(=O)N(C)[C@@H](C(C)C)C(=O)O[C@@H]4C)c3nc-2c(C(=O)N[C@@H]2C(=O)N[C@H](C(C)C)C(=O)N3CCC[C@H]3C(=O)N(C)CC(=O)N(C)[C@@H](C(C)C)C(=O)O[C@@H]2C)c(N)c1=O [Dactinomycin] (10 nM)", "normalised response", 69.3),
    ("C=CCNC1=C2C[C@@H](C)C[C@H](OC)[C@H](O)[C@@H](C)/C=C(\\C)[C@H](OC(N)=O)[C@@H](OC)/C=C\\C=C(/C)C(=O)NC(=CC1=O)C2=O [Tanespimycin] (100 nM)", "normalised response", 74.2),
    ("Cc1c2oc3c(C)ccc(C(=O)N[C@@H]4C(=O)N[C@H](C(C)C)C(=O)N5CCC[C@H]5C(=O)N(C)CC(=O)N(C)[C@@H](C(C)C)C(=O)O[C@@H]4C)c3nc-2c(C(=O)N[C@@H]2C(=O)N[C@H](C(C)C)C(=O)N3CCC[C@H]3C(=O)N(C)CC(=O)N(C)[C@@H](C(C)C)C(=O)O[C@@H]2C)c(N)c1=O [Dactinomycin] (100 nM)", "normalised response", 31.6),
    ("COc1cc(Nc2ncc3c(n2)-c2ccc(Cl)cc2C(c2c(F)cccc2OC)=NC3)ccc1C(=O)O [Alisertib] (1000 nM)", "normalised response", 93.3),
]

###

Tested on: MDA-MB-468
Experiment: normalised response (% of control), CellTiter-Glo; higher = more viable cells (100 = DMSO, 0 = benzethonium chloride kill control)
Settings: incubation time: 72 h
Item-by-item account of normalised response

# compound, normalised response (%)
rows = [
    ("Cc1c2oc3c(C)ccc(C(=O)N[C@@H]4C(=O)N[C@H](C(C)C)C(=O)N5CCC[C@H]5C(=O)N(C)CC(=O)N(C)[C@@H](C(C)C)C(=O)O[C@@H]4C)c3nc-2c(C(=O)N[C@@H]2C(=O)N[C@H](C(C)C)C(=O)N3CCC[C@H]3C(=O)N(C)CC(=O)N(C)[C@@H](C(C)C)C(=O)O[C@@H]2C)c(N)c1=O [Dactinomycin] (1000 nM)", 4.19),
    ("OC[C@H]1O[C@@H](n2cnc3c2N=CNC[C@H]3O)C[C@@H]1O [Pentostatin] (10000 nM)", 103),
    ("C=CC[C@@H]1/C=C(\\C)C[C@H](C)C[C@H](OC)[C@H]2O[C@@](O)(C(=O)C(=O)N3CCCC[C@H]3C(=O)O[C@H](/C(C)=C/[C@@H]3CC[C@@H](O)[C@H](OC)C3)[C@H](C)[C@@H](O)CC1=O)[C@H](C)C[C@@H]2OC [Tacrolimus] (10000 nM)", 85.4),
    ("CC(=O)O[C@]1(C(C)=O)CC[C@H]2[C@@H]3C=C(C)C4=CC(=O)CC[C@]4(C)[C@H]3CC[C@@]21C [Megestrol acetate] (10000 nM)", 95.9),
    ("CN(C)C/C=C/C(=O)Nc1cc2c(Nc3ccc(F)c(Cl)c3)ncnc2cc1O[C@H]1CCOC1 [Afatinib] (1000 nM)", 66.8),
]

###

Item-by-item account of normalised viability
Tested on: Hs578T
Test: normalised viability (% of control), CellTiter-Blue; higher = more viable cells (about 100 = DMSO control)
Conditions: 100 nM; incubation time: 72 h

# query smiles, normalised viability
data = [
    ("COc1cc(Nc2ncc3c(n2)-c2ccc(Cl)cc2C(c2c(F)cccc2OC)=NC3)ccc1C(=O)O", "51.3%"),
    ("CN1CC[C@H](c2c(O)cc(O)c3c(=O)cc(-c4ccccc4Cl)oc23)[C@H](O)C1", "51.5%"),
    ("OC[C@H]1O[C@@H](n2cnc3c2N=CNC[C@H]3O)C[C@@H]1O", "91.5%"),
    ("COc1cccc2cc(-c3nc([C@H]4CC[C@H](C(=O)O)CC4)n4ncnc(N)c34)[nH]c12", "84.1%"),
]

###

Test system: BT-474
Experiment: normalised response (% of control), CellTiter-Glo; higher = more viable cells (100 = DMSO, 0 = benzethonium chloride kill control)
Conditions: incubation time: 72 h

# compound, unit of measure, normalised response
data = [
    ("COc1cccc2c1C(=O)c1c(O)c3c(c(O)c1C2=O)C[C@@](O)(C(=O)CO)C[C@@H]3O[C@H]1C[C@H](N)[C@H](O)[C@H](C)O1 [Doxorubicin] (100 nM)", "%", 82.9),
    ("CC(=O)O[C@]1(C(C)=O)CC[C@H]2[C@@H]3C=C(C)C4=CC(=O)CC[C@]4(C)[C@H]3CC[C@@]21C [Megestrol acetate] (1000 nM)", "%", 111),
    ("CN(C)C/C=C/C(=O)Nc1cc2c(Nc3ccc(F)c(Cl)c3)ncnc2cc1O[C@H]1CCOC1 [Afatinib] (1 nM)", "%", 97.5),
    ("Cc1ccc(F)c(NC(=O)Nc2ccc(-c3cccc4[nH]nc(N)c34)cc2)c1 [Linifanib] (0.1 nM)", "%", 107),
    ("S=c1[nH]cnc2nc[nH]c12 [Mercaptopurine] (1000 nM)", "%", 75.6),
    ("CS(=O)(=O)c1ccc(C(=O)Nc2ccc(Cl)c(-c3ccccn3)c2)c(Cl)c1 [Vismodegib] (10 nM)", "%", 90.2),
    ("Cc1c2oc3c(C)ccc(C(=O)N[C@@H]4C(=O)N[C@H](C(C)C)C(=O)N5CCC[C@H]5C(=O)N(C)CC(=O)N(C)[C@@H](C(C)C)C(=O)O[C@@H]4C)c3nc-2c(C(=O)N[C@@H]2C(=O)N[C@H](C(C)C)C(=O)N3CCC[C@H]3C(=O)N(C)CC(=O)N(C)[C@@H](C(C)C)C(=O)O[C@@H]2C)c(N)c1=O [Dactinomycin] (100 nM)", "%", 6.79),
    ("COc1cccc2c1C(=O)c1c(O)c3c(c(O)c1C2=O)C[C@@](O)(C(=O)CO)C[C@@H]3O[C@H]1C[C@H](N)[C@H](O)[C@H](C)O1 [Doxorubicin] (1 nM)", "%", 101),
    ("CO[C@H]1C[C@@H]2CC[C@@H](C)[C@@](O)(O2)C(=O)C(=O)N2CCCC[C@H]2C(=O)O[C@H]([C@H](C)C[C@@H]2CC[C@@H](OC(=O)C(C)(CO)CO)[C@H](OC)C2)CC(=O)[C@H](C)/C=C(\\C)[C@@H](O)[C@@H](OC)C(=O)[C@H](C)C[C@H](C)/C=C/C=C/C=C/1C [Temsirolimus] (10 nM)", "%", 83.3),
    ("N#CC[C@H](C1CCCC1)n1cc(-c2ncnc3[nH]ccc23)cn1 [Ruxolitinib] (10 nM)", "%", 97),
    ("OC[C@H]1O[C@@H](n2cnc3c2N=CNC[C@H]3O)C[C@@H]1O [Pentostatin] (10 nM)", "%", 98),
    ("CCN1CCN(c2ccc(Nc3cc(N(C)C(=O)Nc4c(Cl)c(OC)cc(OC)c4Cl)ncn3)cc2)CC1 [NVP-BGJ398] (100 nM)", "%", 94.5),
]
